Tested on: hepatocellular carcinoma cell line Hep3B
run.description: Growth inhibition of Hep3B cells, 48 hr treatment, Hoechst 33342 nucleus count (GE InCell 2200)
Assay type: cell-based
condition.set: Homo sapiens, Table 5, ratio of number of tumor cells treated with 10 μM compound to non-treated cells
For each record, write down the corresponding viability at 10 µM.
// return numeric value only (unit: %, not printed)

Query block: Need viability at 10 µM of CCCCCCOc1ccc(-c2nc(NC(=O)c3ccc([N+](=O)[O-])s3)sc2Oc2ccccc2)cc1 , thanks.
Result block: 46

Query block: And for CCOc1ccc(-c2nc(NC(=O)c3ccc([N+](=O)[O-])s3)sc2Oc2ccc(C(F)(F)F)cc2)cc1 ?
Result block: 32

Query block: And for CCc1ccc(-c2nc(NC(=O)c3ccc([N+](=O)[O-])s3)sc2Oc2ccc(C(C)(C)CC)cc2)cc1 ?
Result block: 33

Query block: And for CCCOc1ccc(-c2nc(NC(=O)c3ccc([N+](=O)[O-])s3)sc2Oc2ccc(Br)cc2)cc1 ?
Result block: 31

---

Test system: Hep3B hepatocellular carcinoma cell line
run.description: MTS cell viability assay (NCI-60 methodology), GI50/LC50, Hep3B
Format: cell-based
condition.set: Homo sapiens, 48 h, Hep3B cells, 2 days incubation with compound
So basically, if GI50 comes in under 500 nM it's T, and if it's 500 nM or more it's F.

Query block: Would you kindly verify if GI50 of Nc1nc2ccc(CC(=O)Nc3nnc(-c4ccc(Br)cc4)s3)cc2s1 is strictly less than 500 nM?
Result block: F

Query block: And for CCCOc1ccc(-c2nc(NC(=O)c3ccc([N+](=O)[O-])s3)sc2Oc2cccc(C(F)(F)F)c2)cc1 ?
Result block: T

Query block: And for CC(C)(C)c1ccc(-c2nc(NC(=O)c3ccc([N+](=O)[O-])s3)sc2-c2ccc(F)c(F)c2)cc1 ?
Result block: F

Query block: And for CCC(CC)Oc1ccccc1-c1nnc(NC(=O)Cc2ccc3nc(N)sc3c2)s1 ?
Result block: T

Query block: And for CCCOc1ccccc1-c1nnc(NC(=O)Cc2ccc3nc(N)sc3c2)s1 ?
Result block: T

Query block: And for CCCOc1ccc(-c2nc(NC(=O)c3ccc([N+](=O)[O-])s3)sc2Oc2ccc(OC(F)(F)F)cc2)cc1 ?
Result block: F

Query block: And for CC(C)(C)c1ccc(-c2nc(NC(=O)c3ccc([N+](=O)[O-])s3)sc2-c2ccc(Br)cc2)cc1 ?
Result block: F

Query block: And for CCCCCCOc1ccc(-c2nc(NC(=O)c3ccc([N+](=O)[O-])s3)sc2Oc2ccccc2)cc1 ?
Result block: F

---

For each record, write down the corresponding GI50.
System: SW480 colon adenocarcinoma cell line
run.description: MTS cell viability assay (NCI-60 methodology), GI50/LC50, SW480
Type: cell-based
condition.set: Homo sapiens, 48 h, SW480 cells, 2 days incubation with compound
State the result as a value with its unit after it.

Query block: Need GI50 of CCC(C)(C)c1ccc(-c2nc(NC(=O)c3ccc([N+](=O)[O-])s3)sc2-c2ccc(F)cc2)cc1 , thanks.
Result block: 920 nM

Query block: And for CCCCOc1ccc(Oc2sc(NC(=O)c3ccc([N+](=O)[O-])s3)nc2-c2ccc(F)cc2)cc1 ?
Result block: 950 nM

Query block: And for CCCCCOc1ccc(-c2nc(NC(=O)c3ccc([N+](=O)[O-])s3)sc2Oc2ccccc2)cc1 ?
Result block: 1270 nM

Query block: And for CCOc1ccc(-c2nnc(NC(=O)Cc3ccc4nc(N)sc4c3)s2)c(OCCOC)c1 ?
Result block: 230 nM

Query block: And for CCCOc1ccc(-c2nc(NC(=O)c3ccc([N+](=O)[O-])s3)sc2Oc2ccc(F)cc2)cc1 ?
Result block: 530 nM

Query block: And for CC(C)(C)c1ccc(-c2nc(NC(=O)c3ccc([N+](=O)[O-])s3)sc2-c2ccccc2)cc1 ?
Result block: 490 nM

Query block: And for CCC(CC)Oc1ccccc1-c1nnc(NC(=O)Cc2ccc3nc(N)sc3c2)s1 ?
Result block: 1230 nM

---

System: SW480 colon adenocarcinoma cell line
So basically, if GI50 comes in under 3000 nM it's rule met, and if it's 3000 nM or more it's rule not met.

Query block: Would you kindly verify if GI50 of Cc1ccc(-c2nc(NC(=O)Cc3ccc4nc(N)sc4c3)sc2-c2ccc(Br)cc2)cc1 [Compound 3-3] is strictly less than 3000 nM?
Result block: rule not met

Query block: And for CCCCOc1ccc(-c2nc(NC(=O)c3ccc([N+](=O)[O-])s3)sc2Oc2ccccc2)cc1 [Compound 5-56] ?
Result block: rule met

Query block: And for CCC(CC)Oc1ccc(-c2nnc(NC(=O)Cc3ccc4nc(N)sc4c3)s2)cc1 [Compound 1-16] ?
Result block: rule not met

Query block: And for CCOc1ccc(-c2nnc(NC(=O)Cc3ccc4nc(N)sc4c3)s2)c(OCC)c1 [Compound 1-18] ?
Result block: rule met

Query block: And for O=C(Nc1nc(-c2ccc(Br)cc2)c(Oc2ccc(OC(F)(F)F)cc2)s1)c1ccc([N+](=O)[O-])s1 [Compound 5-18] ?
Result block: rule met

---

System: NCI-H460 human lung cancer cell line
run.description: MTS cell viability assay (NCI-60 methodology), GI50/LC50, NCI-H460
Type: cell-based
condition.set: 48 h, NCI-H460 cells, 2 days incubation with compound
For each record, write down the corresponding LC50 (concentration giving 50% net cell loss versus time zero, NCI-60 definition).
// return numeric value only (unit: nM, not printed)

Query block: Need LC50 (concentration giving 50% net cell loss versus time zero, NCI-60 definition) of CCCOc1ccc(-c2nc(NC(=O)c3ccc([N+](=O)[O-])s3)sc2Oc2ccccc2)cc1 , thanks.
Result block: 2860

Query block: And for CCCOc1ccc(-c2nc(NC(=O)c3ccc([N+](=O)[O-])s3)sc2Oc2cccc(C(F)(F)F)c2)cc1 ?
Result block: 2290

Query block: And for CC(C)(C)c1ccc(-c2nc(NC(=O)c3ccc([N+](=O)[O-])s3)sc2Oc2cccc(F)c2)cc1 ?
Result block: 4530

Query block: And for Nc1nc2ccc(CC(=O)Nc3nc(-c4ccc(Br)cc4)c(-c4ccc(Br)cc4)s3)cc2s1 ?
Result block: 6620

Query block: And for CCC(C)(C)c1ccc(-c2nc(NC(=O)c3ccc([N+](=O)[O-])s3)sc2Oc2ccc(F)cc2)cc1 ?
Result block: 1110

Query block: And for CCCOc1ccc(-c2nc(NC(=O)c3ccc([N+](=O)[O-])s3)sc2Oc2ccc(OC(F)(F)F)cc2)cc1 ?
Result block: 4660

Query block: And for CC(C)(C)c1ccc(-c2nc(NC(=O)c3ccc([N+](=O)[O-])s3)sc2-c2ccccc2)cc1 ?
Result block: 1470

Query block: And for CC(C)(C)c1ccc(-c2nc(NC(=O)c3ccc([N+](=O)[O-])s3)sc2-c2ccc(Cl)cc2)cc1 ?
Result block: 1280

---

Test system: SW480 colon adenocarcinoma cell line
parameter: GI50 (nM)
// return numeric value only (unit: nM, not printed)

Query block: Need GI50 of Cc1ccc(-c2nc(NC(=O)c3ccc([N+](=O)[O-])s3)sc2-c2ccc(Br)cc2)cc1 , thanks.
Result block: 970

Query block: And for CC(C)(C)c1ccc(-c2nc(NC(=O)c3ccc([N+](=O)[O-])s3)sc2Oc2cccc(F)c2)cc1 ?
Result block: 2500

Query block: And for CC(C)Oc1ccccc1-c1nnc(NC(=O)Cc2ccc3nc(N)sc3c2)s1 ?
Result block: 620

Query block: And for CCCCCCOc1ccc(-c2nc(NC(=O)c3ccc([N+](=O)[O-])s3)sc2Oc2ccccc2)cc1 ?
Result block: 1030

Query block: And for CCOc1ccc(-c2nc(NC(=O)c3ccc([N+](=O)[O-])s3)sc2Oc2ccc(C(C)(C)C)cc2)cc1 ?
Result block: 3340

Query block: And for CC(C)(C)c1ccc(-c2nc(NC(=O)c3ccc([N+](=O)[O-])s3)sc2-c2ccc(F)c(F)c2)cc1 ?
Result block: 680

Query block: And for CC(C)(C)c1ccc(-c2nc(NC(=O)c3ccc([N+](=O)[O-])s3)sc2Oc2ccccc2C(F)(F)F)cc1 ?
Result block: 730

---

Test system: NCI-H460 human lung cancer cell line
run.description: MTS cell viability assay (NCI-60 methodology), GI50/LC50, NCI-H460
Assay type: cell-based
condition.set: 48 h, NCI-H460 cells, 2 days incubation with compound
So basically, if LC50 (concentration giving 50% net cell loss versus time zero, NCI-60 definition) comes in under 2000 nM it's 1 (yes), and if it's 2000 nM or more it's 0 (no).

Query block: Would you kindly verify if LC50 (concentration giving 50% net cell loss versus time zero, NCI-60 definition) of CCCOc1ccc(-c2nc(NC(=O)c3ccc([N+](=O)[O-])s3)sc2-c2ccc(F)cc2)cc1 is strictly less than 2000 nM?
Result block: 1 (yes)

Query block: And for CCOc1ccc(-c2nc(NC(=O)c3ccc([N+](=O)[O-])s3)sc2Oc2ccc(C(C)(C)C)cc2)cc1 ?
Result block: 0 (no)

Query block: And for CCC(C)(C)c1ccc(-c2nc(NC(=O)c3ccc([N+](=O)[O-])s3)sc2-c2ccc(F)cc2)cc1 ?
Result block: 0 (no)

Query block: And for CCCOc1ccc(-c2nc(NC(=O)c3ccc([N+](=O)[O-])s3)sc2Oc2ccc(C#N)cc2)cc1 ?
Result block: 1 (yes)

Query block: And for CCOCOc1cc(OCC)ccc1-c1nnc(NC(=O)Cc2ccc3nc(N)sc3c2)s1 ?
Result block: 1 (yes)

Query block: And for O=C(Nc1nc(-c2ccc(OC(F)(F)F)cc2)c(Oc2ccccc2F)s1)c1ccc([N+](=O)[O-])s1 ?
Result block: 1 (yes)

Query block: And for CCCOc1ccc(-c2nc(NC(=O)c3ccc([N+](=O)[O-])s3)sc2Oc2ccc(C(F)(F)F)cc2Cl)cc1 ?
Result block: 1 (yes)

Query block: And for CC(C)(C)c1ccc(-c2nc(NC(=O)c3ccc([N+](=O)[O-])s3)sc2Oc2ccc(F)cc2)cc1 ?
Result block: 0 (no)

Query block: And for CCCOc1ccc(-c2nc(NC(=O)c3ccc([N+](=O)[O-])s3)sc2Oc2ccc(C(F)(F)F)cc2)cc1 ?
Result block: 0 (no)

Query block: And for CCCCOc1ccc(Oc2sc(NC(=O)c3ccc([N+](=O)[O-])s3)nc2-c2ccc(F)cc2)cc1 ?
Result block: 1 (yes)

Query block: And for CCCCOc1ccc(-c2nc(NC(=O)c3ccc([N+](=O)[O-])s3)sc2-c2ccc(F)cc2)cc1 ?
Result block: 0 (no)

Query block: And for CCC(C)(C)c1ccc(-c2nc(NC(=O)c3ccc([N+](=O)[O-])s3)sc2-c2ccc(F)cc2F)cc1 ?
Result block: 1 (yes)

Query block: And for CC(C)(C)c1ccc(-c2nc(NC(=O)c3ccc([N+](=O)[O-])s3)sc2-c2cc(F)cc(F)c2)cc1 ?
Result block: 1 (yes)

Query block: And for CC(C)(C)c1ccc(-c2nc(NC(=O)c3ccc([N+](=O)[O-])s3)sc2-c2ccc(F)cc2)cc1 ?
Result block: 0 (no)

Query block: And for O=C(Nc1nc(-c2ccc(Br)cc2)c(Oc2ccc(C(F)(F)F)cc2)s1)c1ccc([N+](=O)[O-])s1 ?
Result block: 1 (yes)

Query block: And for CCCOc1ccc(-c2nc(NC(=O)c3ccc([N+](=O)[O-])s3)sc2Oc2ccc(F)cc2)cc1 ?
Result block: 0 (no)

Query block: And for CCOc1ccc(-c2nnc(NC(=O)Cc3ccc4nc(N)sc4c3)s2)cc1 ?
Result block: 1 (yes)

Query block: And for CCCOc1ccc(-c2nc(NC(=O)c3ccc([N+](=O)[O-])s3)sc2Oc2ccc(Br)cc2)cc1 ?
Result block: 0 (no)

Query block: And for CCCCOc1ccc(-c2nc(NC(=O)c3ccc([N+](=O)[O-])s3)sc2Oc2ccccc2)cc1 ?
Result block: 1 (yes)

Query block: And for O=C(Nc1nc(-c2ccc(C(F)(F)F)cc2)c(Oc2ccccc2)s1)c1ccc([N+](=O)[O-])s1 ?
Result block: 0 (no)

Query block: And for CC(C)(C)c1ccc(-c2nc(NC(=O)c3ccc([N+](=O)[O-])s3)sc2Oc2ccc(C(F)(F)F)cc2)cc1 ?
Result block: 1 (yes)

Query block: And for CCC(C)(C)c1ccc(Oc2sc(NC(=O)c3ccc([N+](=O)[O-])s3)nc2-c2ccc(F)cc2)cc1 ?
Result block: 1 (yes)

Query block: And for CCC(C)(C)c1ccc(Oc2sc(NC(=O)c3ccc([N+](=O)[O-])s3)nc2-c2ccc(C(F)(F)F)cc2)cc1 ?
Result block: 0 (no)

Query block: And for CCCOc1ccc(-c2nc(NC(=O)c3ccc([N+](=O)[O-])s3)sc2Oc2cccc(F)c2)cc1 ?
Result block: 0 (no)

Query block: And for COc1ccc(-c2sc(NC(=O)c3ccc([N+](=O)[O-])s3)nc2-c2ccc(C(C)(C)C)cc2)cc1 ?
Result block: 1 (yes)

Query block: And for CCOc1ccc(-c2nnc(NC(=O)Cc3ccc4nc(N)sc4c3)s2)c(OCC)c1 ?
Result block: 1 (yes)

Query block: And for O=C(Nc1nc(-c2ccc(F)cc2)c(Oc2ccccc2OC(F)(F)F)s1)c1ccc([N+](=O)[O-])s1 ?
Result block: 1 (yes)

Query block: And for CCOc1ccc(-c2nnc(NC(=O)Cc3ccc4nc(N)sc4c3)s2)c(OCCOC)c1 ?
Result block: 1 (yes)

Query block: And for CCCCCOc1ccc(-c2nc(NC(=O)c3ccc([N+](=O)[O-])s3)sc2Oc2ccccc2)cc1 ?
Result block: 1 (yes)
